Assay: in vivo
Settings: CD1, mouse, plasma, ip, 12 mg/kg/day
Property Name: half-life

Bench note: what half-life did COc1cc([C@@H]2c3cc4c(cc3[C@@H](O[C@@H]3O[C@@H]5CO[C@@H](C)O[C@H]5[C@H](O)[C@H]3O)[C@H]3COC(=O)[C@H]23)OCO4)cc(OC)c1O [etoposide] show?
14.4 min
